protocol.text: yeast display, Sf9 membrane polyspecificity reagent, FACS + sequencing; frameworks hold sequencing errors
attribute.measured: polyreactivity (PSR sort gate)

QVQLVESGGGLVQAGGSLRLSCAASGFIFVRYAMGWYRQAPGKERELVASITRSGGSTYYADSVKGRFTISRDNAKNTVYLQMNSLKPEDTAVYYCAASYYRSRGSTYGYWGQGTQVTVSS : high polyreactivity
QVQLVESGGGLVQAGGSLRLSGAASGRTFYDYAMGWYRQAPGKERELVAAISWIDGSTYYADSVKGRFTISRDNAKNTVYLLMNSLKPEDTAVYYCAARRLVYYRKVKELDYWGQGTQVTVSS : high polyreactivity
QVQLVESGGGLVQAGGSLRLSCAASGFTLPVYGMGWYRQAPGQERELVAAISSRGGNTYYADSVKGRFTISRDNAKNTVYLQMNSLKPEDTAVYYCAAGGITYTGDDYWGQGTQVTVSS : high polyreactivity

The values you see were collected from the nanobody polyreactivity screen of Harvey et al. (2022).
